experimental.system: Orexin/Hypocretin receptor type 1 (Homo sapiens) (UniProt O43613)
Sequence (O43613 whole entry, looked up): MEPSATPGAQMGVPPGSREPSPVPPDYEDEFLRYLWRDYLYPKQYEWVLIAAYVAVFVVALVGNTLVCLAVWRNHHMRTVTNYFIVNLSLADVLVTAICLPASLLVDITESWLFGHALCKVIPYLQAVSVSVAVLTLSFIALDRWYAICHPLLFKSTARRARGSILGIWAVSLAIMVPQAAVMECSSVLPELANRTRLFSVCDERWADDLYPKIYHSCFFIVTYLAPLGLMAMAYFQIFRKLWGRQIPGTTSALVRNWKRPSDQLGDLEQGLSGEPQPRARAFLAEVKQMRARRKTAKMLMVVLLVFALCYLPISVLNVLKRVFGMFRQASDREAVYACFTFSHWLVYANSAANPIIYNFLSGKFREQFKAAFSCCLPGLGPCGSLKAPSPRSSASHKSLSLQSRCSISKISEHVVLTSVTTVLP
assay.text: OX1R (HCRTR1) antagonists, confirmation, cell-based, HTRF (AID 492964);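 also: CHO cells expressing OX1R stimulated with orexin A at about EC80; 0% = agonist challenge alone and 100% = reference antagonist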
run.parameters: OX1R-expressing cells, HTRF antagonist assay; at 6.6 µM
The whole screen tested about 1,800 compounds, of which about 880 (49%) were called active. Rule as the data show it: active = inhibition above about 55%; inactive = the rest. So high a share suggests a set chosen from earlier hits. Only a sample is shown.
Please answer using one outcome listed in t = active, f = inactive

The following molecules have reported results that may help.
>>> print(df.to_string())
                                   molecule                       experimental_system  group
0  Cc1oc2c(c1C(=O)N1CCOCC1)C(=O)c1ccccc1C2=O  Orexin/Hypocretin receptor type 1 (Homo sapiens) (UniProt O43613)      t
1  C/C(N)=C(/C#N)C(=O)COC(=O)c1cc(-c2ccc(C)cc2)nc2ccccc12  Orexin/Hypocretin receptor type 1 (Homo sapiens) (UniProt O43613)      f
2  COc1cccc(N=c2oc3c(C)ncc(CO)c3cc2C(N)=O)c1  Orexin/Hypocretin receptor type 1 (Homo sapiens) (UniProt O43613)      f

Exam item: How was `CN(C(=O)CSc1nnc(-c2n[nH]c3ccccc23)o1)c1ccccc1` classified in this test?
Marked response: f

Exam item: How was `COCCCNC(=S)NC(=O)c1ccc([N+](=O)[O-])cc1` classified in this test?
Marked response: f

Exam item: How was `Nc1nc(COC(=O)CCC(=O)c2ccc(Cl)cc2)nc(Nc2ccccc2)n1` classified in this test?
Marked response: f

Exam item: How was `CCOc1ccc(/C=C/C(=O)OCC(=O)c2ccccc2OC)cc1OC` classified in this test?
Marked response: t

Exam item: How was Cc1cc(-c2ccc(C)c(S(=O)(=O)NC(C)Cc3ccco3)c2)on1 (configuration not stated) classified in this test?
Marked response: f

Exam item: How was `CCn1c(C)nc2c1C(=O)c1ccccc1C2=O` classified in this test?
Marked response: t

Exam item: How was `S=c1[nH]nc(-c2cc(-c3ccccc3)n[nH]2)n1/N=C/c1c2ccccc2cc2ccccc12` classified in this test?
Marked response: t

Exam item: How was Cc1cccn2c(=O)c3cc(C#N)c(=NC(=O)c4cccnc4)n(CC4CCCO4)c3nc12 (configuration not stated) classified in this test?
Marked response: f

* * *

experimental.system: Orexin/Hypocretin receptor type 1 (Homo sapiens) (UniProt O43613)
assay.text: OX1R (HCRTR1) antagonists, confirmation, cell-based, HTRF (AID 492964)
run.parameters: OX1R-expressing cells, HTRF antagonist assay; at 6.6 µM; hits give high values
Among all 1,800 compounds or so, about 880 (49%) were called active. So high a share suggests a set chosen from earlier hits. The list is a sample of the results.
Would you kindly list inhibition for each of these compounds?
Give bare numbers, in %.

In the examples that follow, each entry is paired with its recorded inhibition.
In [3]: df
Out[3]:
                                   compound  observed
0  C[n+]1ccccc1C1CCCC/C1=N\Nc1ccc([N+](=O)[O-])cc1[N+](=O)[O-] (centres undefined)      35.2
1  CC(=O)Nc1ccc(Nc2c([N+](=O)[O-])cc(S(C)(=O)=O)cc2[N+](=O)[O-])cc1      46.9
2  O=C(Nc1ccc2sc3ccccc3c(=O)c2c1)c1ccccc1Cl      95.8
3  Cc1ccc([C@@H]2CC=C(C(=O)O)[C@H](c3cccc(Cl)c3)N2S(=O)(=O)c2ccc(C)cc2)cc1      82.8
4  COc1ccccc1N1CC(C(=O)Nc2ccc(S(=O)(=O)N3CCOCC3)cc2)CC1=O (centres undefined)      16.2
5  COc1cc2ccccc2cc1C(=O)Nc1ccc(N2CCOCC2)cc1      56.8

Hi, could you look up inhibition for each item in my list?
1. CCOc1ccc(CCNC(=O)C(CC)n2nc(C)n3c(cc4sccc43)c2=O)cc1OCC (centres undefined)
2. COc1cccc(/C=N/Nc2cc(C)nc(-c3ccccc3O)n2)c1O
3. O=C(N/N=C/c1c(Cl)[nH]c2ccccc12)c1sc2ccccc2c1Cl

Marked response:
1: 81.6; 2: 92.3; 3: 92.5

* * *

experimental.system: Orexin/Hypocretin receptor type 1 (Homo sapiens) (UniProt O43613)
assay.text: OX1R (HCRTR1) antagonists, confirmation, cell-based, HTRF (AID 492964);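 also: CHO cells expressing OX1R stimulated with orexin A at about EC80; 0% = agonist challenge alone and 100% = reference antagonist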
run.parameters: OX1R-expressing cells, HTRF antagonist assay; at 6.6 µM
Screen size: about 1,800 compounds; about 880 (49%) were called active. No stated cut-off is given here; in the data, active means inhibition above about 55%; inactive means the rest. The set was probably picked from earlier hits. Only a sample is shown.
Please answer using one outcome listed in active, inactive

The following compounds have reported results that may help.
>>> print(df.to_string())
                                   compound                       experimental_system     group
0  COc1cccc(/C=N/NC(=O)c2[nH]nc3c2CCc2ccccc2-3)c1O  Orexin/Hypocretin receptor type 1 (Homo sapiens) (UniProt O43613)    active
1  O=C(Cc1ccccc1)N1CCN(S(=O)(=O)c2ccc([N+](=O)[O-])cc2)CC1  Orexin/Hypocretin receptor type 1 (Homo sapiens) (UniProt O43613)    active
2  O=C(NCc1ccco1)C1CCCN(S(=O)(=O)c2cccc3nonc23)C1 (stereo unspecified)  Orexin/Hypocretin receptor type 1 (Homo sapiens) (UniProt O43613)  inactive
3  CCn1c(SCC(=O)c2ccc3ccccc3c2)nnc1-c1cccs1  Orexin/Hypocretin receptor type 1 (Homo sapiens) (UniProt O43613)    active
4  Cc1cc(C)cc(NC(=O)C2CCCN2S(=O)(=O)c2cccc3cccnc23)c1 (stereo unspecified)  Orexin/Hypocretin receptor type 1 (Homo sapiens) (UniProt O43613)    active
5  COc1cccc(C(=O)NC(=O)Nc2nc(C)cc(C(F)(F)F)n2)c1  Orexin/Hypocretin receptor type 1 (Homo sapiens) (UniProt O43613)    active
6  Cc1cccc(NC(=O)Nc2cccc(Oc3c(F)c(F)c(F)c(F)c3F)c2)c1  Orexin/Hypocretin receptor type 1 (Homo sapiens) (UniProt O43613)  inactive
7              N#Cc1nc(-c2cccc3ccccc23)oc1N  Orexin/Hypocretin receptor type 1 (Homo sapiens) (UniProt O43613)    active
8        N#C/C(=C1\CCCN1)c1nc(-c2ccccc2)cs1  Orexin/Hypocretin receptor type 1 (Homo sapiens) (UniProt O43613)    active
9  CCOc1cc(/C=C(\C#N)c2nc(-c3cccs3)c(NC(C)=O)s2)ccc1O  Orexin/Hypocretin receptor type 1 (Homo sapiens) (UniProt O43613)    active

Next item in the queue.
Exam item: How was `Nc1[nH][nH]c(=O)c1N=Nc1ccc2c(c1)OCO2` classified in this test?
Marked response: inactive

* * *

experimental.system: Orexin/Hypocretin receptor type 1 (Homo sapiens) (UniProt O43613)
assay.text: OX1R (HCRTR1) antagonists, confirmation, cell-based, HTRF (AID 492964);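 also: CHO cells expressing OX1R stimulated with orexin A at about EC80; 0% = agonist challenge alone and 100% = reference antagonist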
run.parameters: OX1R-expressing cells, HTRF antagonist assay; at 6.6 µM
The campaign covered roughly 1,800 compounds. About 880 (49%) were called active. Cut-off read from the data, not from the text of the source: active = inhibition above about 55%; inactive = the rest. So high a share suggests a set chosen from earlier hits. A selection follows.
Please answer using one outcome listed in active, inactive

The following compounds have reported results that may help.
>>> print(df.to_string())
                                   compound     group
0  CCC(=O)N(C)C(c1ccccc1Cl)c1nnnn1-c1c(C)cccc1C (stereo unspecified)    active
1  COc1ccc2[nH]c(=O)c(CNc3ccc(C)c(C)c3)cc2c1  inactive
2  Cn1c(N)c(C(=O)COC(=O)c2ccc3ccccc3c2)c(=O)n(C)c1=O    active
3    COc1cccc(/C=C/c2ccc3ccccc3n2)c1OC(C)=O  inactive
4       O=C(c1ccncc1)c1ccc([N+](=O)[O-])cc1  inactive

Exam item: How was `CN1CCN(/N=C/c2ccc(-c3ccc([N+](=O)[O-])cc3)o2)CC1` classified in this test?
Marked response: inactive

* * *

experimental.system: Orexin/Hypocretin receptor type 1 (Homo sapiens) (UniProt O43613)
assay.text: OX1R (HCRTR1) antagonists, confirmation, cell-based, HTRF (AID 492964);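 also: CHO cells expressing OX1R stimulated with orexin A at about EC80; 0% = agonist challenge alone and 100% = reference antagonist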
run.parameters: OX1R-expressing cells, HTRF antagonist assay; at 6.6 µM; hits give high values
Among all 1,800 compounds or so, about 880 (49%) were called active. The set was probably picked from earlier hits. A selection follows.
Would you kindly list inhibition for each of these molecules?
Numbers only, in %.

>>> df
                                   molecule  observed
0     COc1ccc2oc(=O)c(C(=O)NCc3ccccn3)cc2c1      35.8
1  Nc1nc(-c2sc3nc4c(cc3c2N)CCCC4)nc(N2CCOCC2)n1      94.8

Hi, could you look up inhibition for each item in my list?
1. COc1ccc(N(C)C(=O)CCS(=O)(=O)c2cccc3nsnc23)cc1
2. Cc1c(/C=N\NC(=O)c2cc3ccccc3o2)c2ccccc2n1C
3. COc1ccc(S(=O)(=O)NC(C)c2ccccc2)cc1C(=O)N1CCCCC1 (stereo unspecified)
4. O=C(Nc1ccccc1Cl)/C(Cl)=C(\Cl)S(=O)c1ccccc1 (stereo unspecified)
5. COc1ccc(CCn2c(NCCCN3CCOCC3)nc3c2c(=O)[nH]c(=O)n3C)cc1
6. COc1ccc(N2CC(C(=O)NCCN3C(=O)S/C(=C\c4cccnc4)C3=O)CC2=O)c(OC)c1 (stereo unspecified)

Marked response:
1. 38.3
2. 83.1
3. 72.9
4. 89.9
5. 15.3
6. 106

Hi, could you look up inhibition for each item in my list?
1. Cc1ccc(Nc2nc(CSc3nnnn3-c3ccccc3)cc(=O)[nH]2)cc1
2. COC(=O)c1sccc1NC(=O)CSc1ccccc1NS(=O)(=O)c1cc(Cl)ccc1Cl
3. CCn1c(O)c(N=NC2=NC(=O)CS2)c2cc(C)ccc21

Marked response:
1. 22.3
2. 67.1
3. 28.9
